Numbers sourced from PubChem BioAssay AID540252.

biological target: glucose-6-phosphate dehydrogenase-6-phosphogluconolactonase (Plasmodium falciparum 3D7); assay: inhibition of P. falciparum G6PD activity – biochemical, end-point NADPH detection, orthogonal assay, dose response (AID 540252); details: purified PfG6PD enzyme, NADPH direct detection
Activity calls are given as the source filed them. No rule for the calls is given here.
Your reply should match one of these outcome classes. true for active, false for inactive

Below, 5 compounds whose answers are already recorded.
{"Compound": "CN(C)Cc1cc(O)c(CN(C)C)cc1O", "Category label": "false"}
{"Compound": "CN1C(=O)C(N=Nc2ccc([N+](=O)[O-])cc2)SC1=S (stereo unspecified)", "Category label": "false"}
{"Compound": "O=c1c2cc(C(F)(F)F)ccc2sn1-c1ccccc1", "Category label": "true"}
{"Compound": "CCN(CC)CCn1c2ccccc2c(=O)c2c(O)ccc(O)c21", "Category label": "false"}
{"Compound": "CCOc1ccccc1C=NNC(=O)CCCCC(=O)NN=Cc1ccccc1OCC", "Category label": "false"}

Then this compound:
Query: How was N#CC1=C(N)Oc2c(O)cc3ccccc3c2C1c1ccsc1 (stereo unspecified) classified in this test?
Reply: false
